Catalogue of compounds with associated melting point

Prompt: Item under review: "CCN(CC)CCNC(=O)c1cccc2cc3c(I)cccc3nc12" . Reported melting point?
Response: 78 to 80 °C

Prompt: Item under review: COc1cccc2c1Sc1ccc(C(C)C(=O)O)cc1C(=O)C2 (stereo not drawn) . Reported melting point?
Response: 176 to 178 °C

Prompt: Item under review: O=S1(=O)NC(C2CCCCC2)Nc2c(Br)cc(Br)cc21 (stereo not drawn) . Reported melting point?
Response: 166 to 167 °C

Prompt: Item under review: "CCCCCCC(=O)N[C@H](CO)C(=O)OCc1ccccc1" . Reported melting point?
Response: 62 to 66 °C

Prompt: Item under review: "CC(C)C[C@H](NC(=O)N1CCN(c2ccccc2)CC1)C(=O)OCc1ccccc1" . Reported melting point?
Response: 88 °C

Prompt: Item under review: CC1(OCc2ccccc2F)COC(C(C)(C)C)OC1 (stereo not drawn) . Reported melting point?
Response: 50 to 52 °C

Prompt: Item under review: "O=C(c1ccc(Cl)cc1)N1CCC(=Cc2ccc(C3=NCCO3)cc2)CC1" . Reported melting point?
Response: 163 to 164 °C

Prompt: Item under review: "CC1(C)OC(=S)Nc2ccc(-c3coc(C#N)c3)cc21" . Reported melting point?
Response: 214 to 216 °C

----------
Catalogue of compounds with associated melting point

compound | test result
Cn1ncc(/C=C/C(=O)Nc2ccc(CCc3nccs3)cc2)c1-c1ccc(F)cc1 | 201 to 202 °C

Prompt: Item under review: "CCOC(=O)C(C)(C)OC(=O)c1cc([N+](=O)[O-])ccc1Cl" . Reported melting point?
Response: 64 to 66 °C

Prompt: Item under review: "CSc1cc(C(F)(F)F)ccc1C#N" . Reported melting point?
Response: 80 °C

Prompt: Item under review: "CC1(C)C(=O)Oc2cc([N+](=O)[O-])c3ccc(Cn4cncn4)cc3c21" . Reported melting point?
Response: 150 to 152 °C

----------
Catalogue of molecules with associated melting point

Prompt: Item under review: "CN1C(=O)C2=C(c3ccc(Br)cc3)N(c3ccccc3)C(=O)C2=C1c1ccccc1" . Reported melting point?
Response: 255 to 256 °C

Prompt: Item under review: "CN(C)C(=O)Sc1ccccc1C(=O)c1ccccc1C#N" . Reported melting point?
Response: 130 °C

Prompt: Item under review: "O=C(NCc1ccc(Cl)cc1)c1n[nH]c2ncc(I)cc2c1=O" . Reported melting point?
Response: > 300 °C

----------
observation type: melting point

Recorded results for 2 molecules are shown here.
molecule | melting point
Cc1ccccc1N=c1scc(-c2ccc(Cl)c(S(=O)(=O)N(C)C)c2)n1C | 158 to 162 °C
Cc1csc2cc(C(=O)O)ccc12 | 230 to 232 °C

Prompt: Item under review: COC1(c2cccc(OCc3ccc4ccccc4c3)c2)CC(C)OC(C)C1 (stereo not drawn) . Reported melting point?
Response: 105 to 107 °C

Prompt: Item under review: "O=C(c1ccco1)N1CCN(c2cc(-c3ccccc3)c3c(n2)CCCC3)CC1" . Reported melting point?
Response: 128 to 130 °C

Prompt: Item under review: "CCCCCCCCCCOc1cc(OCCCCCCc2cccc(O)c2O)cc(C(=O)O)c1" . Reported melting point?
Response: 86 to 88 °C

Prompt: Item under review: COc1cc(OC)nc(C2(O)OC(=O)c3c(Cl)cccc32)n1 (stereo not drawn) . Reported melting point?
Response: 188 to 190 °C

Prompt: Item under review: CNC(=O)C(C)n1cc(C)c(-c2ccccc2)n1 (stereo not drawn) . Reported melting point?
Response: 111 to 112 °C

Prompt: Item under review: "CCCCn1c(=O)c2c(nc(C)n2S(=O)(=O)c2ccc(C)cc2)n(CCCC)c1=O" . Reported melting point?
Response: 111 to 113 °C

Prompt: Item under review: "COc1ccc(Nc2nc(NC3CCCCCC3)cc(N3CCC(O)CC3)n2)cc1Cl" . Reported melting point?
Response: 84 to 86 °C

Prompt: Item under review: "CC(C)(C)OC(=O)N1C[C@@H](P(C2CCCCC2)C2CCCCC2)C[C@H]1CP(c1ccccc1)c1ccccc1" . Reported melting point?
Response: 171 to 174 °C

Prompt: Item under review: "COC(=O)CCC#Cc1ccc(O)c(CCC(=O)OC)n1" . Reported melting point?
Response: 119 to 121 °C

Prompt: Item under review: "CCOC(=O)Cn1c(=O)c(=O)[nH]c2ccc3ccc(-n4ccc(CNC(=O)c5ccccc5)c4)cc3c21" . Reported melting point?
Response: > 250 °C

Prompt: Item under review: "COc1ccc2cc([C@H](C)C(=O)NOCC(=O)N3CCC(CO[N+](=O)[O-])CC3)ccc2c1" . Reported melting point?
Response: 45 to 47 °C
